# TEST DETAILS: PK protocol (intravenous and oral administration)
# Assay type: in vivo, male Sprague Dawley rats
# MEASUREMENT PARAMETERS: male, Sprague Dawley, plasma; rat, intravenous, dose 1.42 mg/kg

{"columns": ["STRUCTURE SMILES", "half-life / h"],
 "data": [
  ["CCn1nc(S(=O)(=O)NC(=O)Nc2c3c(cc4c2CCC4)CCC3)cc1C1(O)COC1", 1.6]
]}

----------
# TEST DETAILS: PK protocol (intravenous and oral administration)
# Format: in vivo, male Sprague Dawley rats
# MEASUREMENT PARAMETERS: male, Sprague Dawley, plasma; rat, oral, dose 3 mg/kg

{"columns": ["MOLECULE", "half-life"],
 "data": [
  ["CC(C)(O)Cn1ccc(S(=O)(=O)NC(=O)Nc2c3c(cc4c2CCC4)CCC3)n1 [Example 10]", "3.5 h"],
  ["C[C@@H](O)Cn1ccc(S(=O)(=O)NC(=O)Nc2c3c(cc4c2CCC4)CCC3)n1 [Example 16]", "3.2 h"]
]}

----------
# TEST DETAILS: PK protocol (intravenous and oral administration)
# Assay type: in vivo, male Sprague Dawley rats
# MEASUREMENT PARAMETERS: male, Sprague Dawley, plasma; rat, oral, dose 3 mg/kg
OBSERVED PROPERTY: Cmax (ng/mL)

{"columns": ["STRUCTURE SMILES", "UNIT TAG", "RECORDED NUMBER"],
 "data": [
  ["C[C@@H](O)Cn1ccc(S(=O)(=O)NC(=O)Nc2c3c(cc4c2CCC4)CCC3)n1", "ng/mL", 3960],
  ["CC(C)(O)Cn1ccc(S(=O)(=O)NC(=O)Nc2c3c(cc4c2CCC4)CCC3)n1", "ng/mL", 1770],
  ["COCCN(C)C(=O)c1cc(S(=O)(=O)NC(=O)Nc2c3c(cc4c2CCC4)CCC3)nn1C", "ng/mL", 701]
]}

----------
# TARGET OR SYSTEM: NLRP3 (Homo sapiens)
# Sequence (Q96P20 whole entry): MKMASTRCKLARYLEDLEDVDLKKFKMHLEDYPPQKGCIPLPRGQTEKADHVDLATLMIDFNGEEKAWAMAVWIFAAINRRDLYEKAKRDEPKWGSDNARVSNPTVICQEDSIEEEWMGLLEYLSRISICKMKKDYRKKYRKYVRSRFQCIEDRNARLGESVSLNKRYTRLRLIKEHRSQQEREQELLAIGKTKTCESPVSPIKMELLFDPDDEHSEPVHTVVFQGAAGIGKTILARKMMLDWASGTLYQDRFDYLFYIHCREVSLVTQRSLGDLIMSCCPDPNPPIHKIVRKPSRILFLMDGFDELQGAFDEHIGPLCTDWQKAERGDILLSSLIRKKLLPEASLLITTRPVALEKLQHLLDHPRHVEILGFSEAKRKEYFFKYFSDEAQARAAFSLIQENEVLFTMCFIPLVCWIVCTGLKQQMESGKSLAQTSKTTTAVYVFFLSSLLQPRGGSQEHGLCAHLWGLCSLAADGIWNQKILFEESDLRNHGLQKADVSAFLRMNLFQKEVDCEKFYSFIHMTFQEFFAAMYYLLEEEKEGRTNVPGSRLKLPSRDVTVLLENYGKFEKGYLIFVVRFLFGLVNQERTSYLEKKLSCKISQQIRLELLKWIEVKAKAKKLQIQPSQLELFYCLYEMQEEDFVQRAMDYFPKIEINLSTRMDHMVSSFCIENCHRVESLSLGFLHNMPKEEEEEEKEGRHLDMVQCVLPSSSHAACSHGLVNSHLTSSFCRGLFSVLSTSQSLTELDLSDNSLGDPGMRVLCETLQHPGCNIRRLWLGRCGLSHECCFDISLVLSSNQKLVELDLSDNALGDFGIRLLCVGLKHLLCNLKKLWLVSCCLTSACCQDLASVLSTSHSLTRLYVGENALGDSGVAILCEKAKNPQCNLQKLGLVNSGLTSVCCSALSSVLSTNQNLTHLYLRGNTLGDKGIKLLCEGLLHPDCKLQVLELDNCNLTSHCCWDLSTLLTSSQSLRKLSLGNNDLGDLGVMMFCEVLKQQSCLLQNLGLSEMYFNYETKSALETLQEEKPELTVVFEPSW
# TEST DETAILS: THP-1 cells pyroptosis assay
# Type: cell-based
# Design: Seed THP-1 cells (25,000 cells/well) containing 1.0 μg/ml LPS; host or cells: THP-1 cells, LPS-primed, nigericin-stimulated
# MEASUREMENT PARAMETERS: LPS 1 μg/ml, nigericin 5 μM, resazurin read-out
pIC50: −log10 of the molar value. Structures can show the parent of a compound that is named as a salt.

{"columns": ["MOLECULE", "TARGET OR SYSTEM", "pIC50"],
 "data": [
  ["CN(CCCO)C(=O)c1cc(S(=O)(=O)NC(=O)Nc2c3c(cc4c2CCC4)CCC3)nn1C", "NLRP3 (Homo sapiens)", "6.19 to 6.80"],
  ["Cn1nc(S(=O)(=O)NC(=O)Nc2c3c(cc4c2CCC4)CCC3)cc1C1(O)CCOCC1", "NLRP3 (Homo sapiens)", "6.19 to 6.80"],
  ["COC1(c2cc(S(=O)(=O)NC(=O)Nc3c(-c4cccnc4)cc(F)c4c3CCC4)nn2C)COC1", "NLRP3 (Homo sapiens)", "6.19 to 6.80"],
  ["O=C(Nc1c2c(cc3c1CCC3)CCC2)NS(=O)(=O)c1cnn(C2CCOCC2)c1", "NLRP3 (Homo sapiens)", "5.00 to 5.59"],
  ["CC(C)(CO)n1ccc(S(=O)(=O)NC(=O)Nc2c3c(cc4c2CCC4)CCC3)n1", "NLRP3 (Homo sapiens)", "6.80 to 7.40"],
  ["C[C@H](CO)n1ccc(S(=O)(=O)NC(=O)Nc2c3c(cc4c2CCC4)CCC3)n1", "NLRP3 (Homo sapiens)", "6.19 to 6.80"],
  ["CC(C)(O)Cn1cc(S(=O)(=O)NC(=O)Nc2c3c(cc4c2CCC4)CCC3)cn1", "NLRP3 (Homo sapiens)", "5.59 to 6.19"],
  ["CC(C)(O)Cn1ccc(S(=O)(=O)NC(=O)Nc2c3c(c(F)c4c2CCC4)CCC3)n1", "NLRP3 (Homo sapiens)", "> 7.40"],
  ["O=C(Nc1c2c(cc3c1CCC3)CCC2)NS(=O)(=O)c1ccn(C2CCOC2)n1 (stereo not shown)", "NLRP3 (Homo sapiens)", "6.19 to 6.80"],
  ["CC(C)c1cc(Cl)cc(C(C)C)c1NC(=O)NS(=O)(=O)c1cc(C(=O)N(C)CCO)n(C)n1", "NLRP3 (Homo sapiens)", "6.80 to 7.40"],
  ["Cn1nc(S(=O)(=O)NC(=O)Nc2c3c(cc4c2CCC4)CCC3)cc1C(=O)N(CCO)CCO", "NLRP3 (Homo sapiens)", "6.19 to 6.80"],
  ["CCN(CCO)C(=O)c1cc(S(=O)(=O)NC(=O)Nc2c3c(cc4c2CCC4)CCC3)nn1C", "NLRP3 (Homo sapiens)", "6.19 to 6.80"],
  ["CC(C)c1cc(Cl)cc(C(C)C)c1NC(=O)NS(=O)(=O)c1ccn(CC(C)(C)O)n1", "NLRP3 (Homo sapiens)", "5.59 to 6.19"],
  ["CC1(Cn2ccc(S(=O)(=O)NC(=O)Nc3c4c(cc5c3CCC5)CCC4)n2)COC1 [Example 9, ammonium salt]", "NLRP3 (Homo sapiens)", "5.59 to 6.19"],
  ["C[C@@H](O)Cn1cc(S(=O)(=O)NC(=O)Nc2c3c(cc4c2CCC4)CCC3)cn1", "NLRP3 (Homo sapiens)", "5.59 to 6.19"],
  ["O=C(Nc1c2c(cc3c1CCC3)CCC2)NS(=O)(=O)c1ccn(CC2CCOC2)n1 (stereo not shown)", "NLRP3 (Homo sapiens)", "6.80 to 7.40"]
]}
